FYI, the data here is from ChEMBL document CHEMBL4619791.

assay: Lipid-water partition coefficient, logP of the compound; type: physicochemical
Measured Parameter: logP
Answers are plain numbers.

Look up logP for this compound: CCOC(CN1C(=O)C(NC(=O)Nc2ccc(C)cc2)(C(F)(F)C(=O)Nc2ccc(C)cc2)c2ccccc21)OCC (stereo unspecified)
4.1
